- experiment summary: Drug metabolism in rat liver microsomes at 10 uM
- Format: ADME, Microsome
- reported conditions: read-out: Drug metabolism
attribute measured: metabolised at 10 µM (%)

INSERT INTO measurements (query_smiles, recorded_number) VALUES
  ('C[C@@H](C1CC1)n1cc(Cl)nc(Nc2c(Cl)cc(OC(F)F)cc2Cl)c1=O', 20),
  ('C[C@@H](C1CC1)n1cc(Br)nc(Nc2c(Cl)cc(OC(F)F)cc2Cl)c1=O', 4),
  ('Cc1cn([C@H](C)C2CC2)c(=O)c(Nc2c(Cl)cc(OC(F)F)cc2Cl)n1', 7),
  ('C[C@H](C1CC1)n1cc(C#N)nc(Nc2c(Cl)cc(OC(F)F)cc2Cl)c1=O', 1);
